assay-system: WT human SLACK (Homo sapiens)
Construct: host or cells: CHO-K1
Sequence (Q5JUK3 1-1235 isoform Q5JUK3-3): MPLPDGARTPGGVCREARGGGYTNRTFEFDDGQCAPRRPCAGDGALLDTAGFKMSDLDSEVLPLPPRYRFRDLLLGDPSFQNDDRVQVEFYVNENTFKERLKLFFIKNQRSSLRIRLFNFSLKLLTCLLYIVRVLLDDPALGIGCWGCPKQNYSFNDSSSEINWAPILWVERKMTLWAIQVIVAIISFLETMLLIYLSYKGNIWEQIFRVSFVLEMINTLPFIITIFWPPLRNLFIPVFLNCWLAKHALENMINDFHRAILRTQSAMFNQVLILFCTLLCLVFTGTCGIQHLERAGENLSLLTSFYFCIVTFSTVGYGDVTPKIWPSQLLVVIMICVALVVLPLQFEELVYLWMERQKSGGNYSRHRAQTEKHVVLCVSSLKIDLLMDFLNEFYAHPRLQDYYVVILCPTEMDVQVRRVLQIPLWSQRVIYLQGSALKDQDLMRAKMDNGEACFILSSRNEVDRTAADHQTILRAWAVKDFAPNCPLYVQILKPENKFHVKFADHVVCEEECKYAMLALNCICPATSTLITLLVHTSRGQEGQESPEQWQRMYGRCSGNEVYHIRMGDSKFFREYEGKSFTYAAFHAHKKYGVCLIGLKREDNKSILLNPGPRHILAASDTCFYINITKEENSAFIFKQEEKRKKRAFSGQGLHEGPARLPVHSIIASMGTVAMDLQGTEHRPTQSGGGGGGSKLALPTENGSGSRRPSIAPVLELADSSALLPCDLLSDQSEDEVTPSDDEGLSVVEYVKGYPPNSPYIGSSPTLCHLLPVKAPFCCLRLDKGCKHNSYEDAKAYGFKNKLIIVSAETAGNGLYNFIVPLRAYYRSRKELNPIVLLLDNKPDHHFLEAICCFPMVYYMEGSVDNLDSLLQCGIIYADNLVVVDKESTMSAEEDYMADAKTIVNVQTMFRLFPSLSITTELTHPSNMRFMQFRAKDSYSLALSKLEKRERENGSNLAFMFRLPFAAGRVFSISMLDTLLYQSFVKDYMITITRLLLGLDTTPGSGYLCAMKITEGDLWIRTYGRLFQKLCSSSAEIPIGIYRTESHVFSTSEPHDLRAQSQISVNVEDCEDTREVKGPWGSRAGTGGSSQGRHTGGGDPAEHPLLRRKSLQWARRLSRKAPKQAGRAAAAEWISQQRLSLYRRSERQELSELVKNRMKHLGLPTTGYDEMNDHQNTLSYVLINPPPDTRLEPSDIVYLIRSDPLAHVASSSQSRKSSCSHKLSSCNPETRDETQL
assay-text: Whole-cell automated patch clamp (APC) in CHO-K1 cells stably expressing WT human SLACK
Assay type: cell-based
run-parameters: APC, concentrations 0.125 to 30 µM
value-kind: WT SLACK inhibition, result in words

CC(C)(Oc1ccccc1F)C(=O)Nc1cnc(Oc2ccccc2F)nc1 | only weak inhibitors
CC(C)(Oc1ccc(OC(F)(F)F)cc1)C(=O)Nc1cnc(Oc2ccccc2F)nc1 | only weak inhibitors
CC(C)(Oc1ccc(C#N)cc1)C(=O)Nc1cnc(Oc2ccccc2F)nc1 | only weak inhibitors
